- System: Klebsiella pneumoniae
- condition description: Concentration 20 uM; ASSAY_TEST Inhibition of Bacterial Growth; detection method Absorption (OD600); MEDIA CAMHB; plate type 384well; NBS; CORNING #3640; time 18 hr
- Description: Antibacterial activity against Klebsiella pneumoniae MDR ATCC 70063 (CO-ADD:GN_003); MIC in CAMBH media using NBS plates, by OD(600)
Measured potencies and affinities stand elsewhere.
parameter measured: Inhibition (%)
Write it as a number; the unit % goes unstated.

The measured Inhibition associated with COc1ccc(C2=NC(=O)NC2c2ccc(OC)cc2)cc1 (stereo not given) reads 17.66

Form field Inhibition, entry Cc1c(O)ccc2c(O)c(NC(=O)c3ccc4c(c3)CCC(C)(C)O4)c(=O)oc12 : 4.57

Record summary for CC(=O)Nc1c(C)cc(OCC(=O)O)cc1C : reported Inhibition = 20.93

Summary for this molecule, Brc1ccc(/N=N/c2ccc3ccccc3n2)cc1 : Inhibition is 5.4

Recorded result, CSc1nc(N)c(C(=O)Nc2ccc([N+](=O)[O-])cc2)s1 , Inhibition: 8.8

Inhibition reading for CC(C)c1ccc(-c2nc3ccccc3s2)cc1 : 12.27

Measured Inhibition, CCCCC[C@H](O)/C=C/[C@@H]1[C@@H](C/C=C\CCCC(=O)O)[C@@H](O)C[C@H]1O.NC(CO)(CO)CO : 16.21

The reported value for CN(C)c1nc(Cl)nc2c1nc(Cl)n2C1CCCCO1 (stereo not given) in terms of Inhibition is 5.28

get_value(item= Nc1ncnc2c1cnn2C1CCCCC1 , readout=Inhibition) returns 9

Form: molecule = Br.C=CC1CN2CCC1CC2C(O)c1ccnc2ccc(OC)cc12 (stereo not given) ; Inhibition = 15.08

molecule O=C(c1ccccc1)c1ccc(-c2ccc(O)cc2)cc1 , Inhibition observed: 15.69

The recorded Inhibition for entry CCCCNc1cc(Cl)nc(N)n1 equals 9.91

Sure, the documented Inhibition for Cc1cc(NC(=O)Nc2cccc3ccccc23)no1 is -0.15

Form: molecule = Cc1nc(Nc2ccc(F)cc2)nc(Nc2ccc(F)cc2)c1[N+](=O)[O-] ; Inhibition = 11.05

CCCCCC(=O)N1CCCC1 has a reported Inhibition of 10.8

For this molecule ( O=C(Nc1ccc(F)cc1)OCCOc1ccc(Br)cc1 ), measured Inhibition is 0.6

Measured Inhibition, Oc1ccc(/N=N/c2nccs2)c(O)c1 : 17.07

According to the records, this molecule c1ccc(-n2c3ccccc3c3ccccc32)cc1 displays Inhibition of 0.88

Recorded Inhibition (molecule CC(NC(=O)c1ccc(Cl)c(Cl)c1)c1ccc(-c2ccccc2)cc1 (stereo not given) ): 14.03

For CSC(=O)NC(=O)NC(=O)c1ccc([N+](=O)[O-])cc1 the molecule record lists Inhibition as 12.66

---

Could you please report measured Inhibition for the items listed next?
- System: Acinetobacter baumannii
- method notes: Antibacterial activity against Acinetobacter baumannii ATCC 19606 (CO-ADD:GN_034); MIC in CAMBH media using NBS plates, by Resazurin F(560/590)
- Assay type: functional
- condition description: Concentration 20 uM, ASSAY_TEST Inhibition of Bacterial Growth, detection method Resazurin, Fluorescence (ex560/em590), MEDIA CAMHB, plate type 384well, CORNING #3640, time 18 hr
Provide the reading as a plain figure in %.

Form field Inhibition, entry NC(=O)SCC(=O)Nc1ccccc1C(=O)O : 6.48

Briefly, Inhibition measured for c1ccc2c(c1)Oc1cccc3cccc-2c13 : -15.64

The compound CCOC(=O)c1csc(-c2ccc(COC(=O)c3ccccc3)o2)n1 showed Inhibition equal to 3.92

response.value for CN(C)S(=O)(=O)c1ccc(N)c([N+](=O)[O-])c1 (field: Inhibition) = 12.87

Measured Inhibition of O=C(Cn1ccc(=O)[nH]c1=O)Nc1nccs1 : -8.5

What the record says about C1CCc2nc3c(nc2C1)CCCC3 : Inhibition is -4.6

For reference, reported Inhibition for CCCCOc1ccc(NC(=O)Nc2nnc(C)s2)cc1 stands at 11.82

The compound identified as CCOC(=O)c1c(C)nc(C)c(C(=O)OCC)c1-c1ccc(OC)cc1 registered its Inhibition at 2.04

GET /value?item= COc1cccc(OCC(O)CN2CCN(c3ccccc3)CC2)c1 (stereo unspecified) &field=Inhibition returns -11.48

So for Cc1nc(NCc2ccccc2)c2cc[nH]c2n1 [ROLODINE] , the logged Inhibition turned out to be -12.81

Consider NS(=O)(=O)c1ccc(Nc2ccccc2)c([N+](=O)[O-])c1 . Its measured Inhibition is 12.63

The compound identified as CCOC(=O)N1CCN(Cc2c(O)ccc3ccccc23)CC1 registered its Inhibition at -8.59

Inhibition reported for this compound CC1=CC(=O)C(/C(C)=N/c2ccccc2Cl)C(=O)O1 (stereo unspecified) : 14.34

Short answer for COc1ccc(/C=C2/CCOC2=O)cc1 : Inhibition was -9.37

Briefly, Inhibition measured for c1ccc(-c2nnc3nc(N4CCCCC4)nc(N4CCCCC4)n23)cc1 : -1.96

The compound CCCCN1C(=O)CC(C(=O)OCC)=C1C showed Inhibition equal to -15.76

Reported Inhibition of Cc1cccc2cc3cccc(C)c3nc12 : -11.71

Per the records, this compound ( c1ccc(-c2nnc(-c3ccccn3)s2)nc1 ) has Inhibition equal to -18.69

The reported Inhibition of the compound c1ccc(-c2nc[nH]c2-c2ccccc2)cc1 was -13.75

Input CS(=O)(=O)Nc1nc2ccccc2[nH]1 . Output Inhibition: 4.83

Record O=C1CCC(NC(=O)c2ccccc2)C(=O)N1 (stereo unspecified) . Reported Inhibition: 6.82

What the record says about Cn1c(=O)c2nc(SCc3ccccn3)[nH]c2n(C)c1=S : Inhibition is 9.84

For record CC1=CC2(C)NC(=O)C(C)C12 (stereo unspecified) the listed Inhibition is -10.3

Entry under test: CCC(CC)NCCOC(=O)c1ccc([N+](=O)[O-])cc1 . Its Inhibition was -9.59

Inhibition reading for O=c1ccn2c(n1)SC(c1ccccc1)C2 (stereo unspecified) : 7.52

Query OC(COc1ccccc1)CN1CCN(c2ccccc2)CC1 (stereo unspecified) yields Inhibition of -11.62

Measured Inhibition, COc1ccc2nc3cc(Cl)ccc3c(Nc3cc(C(C)C)c(O)cc3C)c2c1 : -16.67

Form field Inhibition, entry COC(=O)C1=C(C)NC(C)=C(C(=O)OC)C(N2C(=O)CCC2=O)C1 (stereo unspecified) : 6.44

Summary for this compound, Brc1csc2ncccc12 : Inhibition is 14.4

For record C=CCOc1c(CCC)cc(CCC)cc1C(N)=O the listed Inhibition is 14.83

Given item Cn1ncc2c(Sc3ccc(Cl)cc3)ncnc21 , the value recorded as its Inhibition is 15.79

Notebook: OCc1nc2nc(Cl)c(Cl)[nH]c-2n1 , Inhibition read as 14.74

Entry under test: CC1(C)N=C(N)N=C(NCCCOc2ccc([N+](=O)[O-])cc2)N1.CCS(=O)(=O)O . Its Inhibition was -9.38

Lab note: COc1ccc2c3c([nH]c2c1)[C@H]1C[C@H]2[C@H](C[C@@H](O)[C@H](OC)[C@H]2CO)CN1CC3 gave Inhibition of 7.85

Record summary for Cc1c(C#N)c2n(c1C)CCCC(=O)N2 : reported Inhibition = 3.89

Entry Nc1nc(SCc2ccccc2)sc1C(=O)N1CCCCC1 — recorded Inhibition = 4.73

Field Inhibition (entry CCOC(=O)Cc1cc(O)c2cc(C)ccc2n1 ) reads -4.86

For record Cc1ccc(C)c(C(=O)CCC(=O)O)c1 the listed Inhibition is 8.73

Noted for CC(=O)C1C=CC(C)(C(=O)O)C2C=C(C)C(=O)C(C)(O)C12 (stereo unspecified) : its Inhibition reads 16.27

// Inhibition lookup, compound = O=C(O)c1cc2ccccc2cc1Nc1ccccc1 , result: 5.64

Record summary for Nc1[nH]nc2nc(-c3ccccc3)nc(O)c12 : reported Inhibition = -10.04

Reference source for all entries: ChEMBL document CHEMBL4296182
